# SYSTEM UNDER TEST: human hNET (Homo sapiens, UniProt P23975)
# Construct: expressed in transfected cells; host or cells: MDCK-Net6 (MDCK cells stably transfected)
# Sequence (P23975 whole entry): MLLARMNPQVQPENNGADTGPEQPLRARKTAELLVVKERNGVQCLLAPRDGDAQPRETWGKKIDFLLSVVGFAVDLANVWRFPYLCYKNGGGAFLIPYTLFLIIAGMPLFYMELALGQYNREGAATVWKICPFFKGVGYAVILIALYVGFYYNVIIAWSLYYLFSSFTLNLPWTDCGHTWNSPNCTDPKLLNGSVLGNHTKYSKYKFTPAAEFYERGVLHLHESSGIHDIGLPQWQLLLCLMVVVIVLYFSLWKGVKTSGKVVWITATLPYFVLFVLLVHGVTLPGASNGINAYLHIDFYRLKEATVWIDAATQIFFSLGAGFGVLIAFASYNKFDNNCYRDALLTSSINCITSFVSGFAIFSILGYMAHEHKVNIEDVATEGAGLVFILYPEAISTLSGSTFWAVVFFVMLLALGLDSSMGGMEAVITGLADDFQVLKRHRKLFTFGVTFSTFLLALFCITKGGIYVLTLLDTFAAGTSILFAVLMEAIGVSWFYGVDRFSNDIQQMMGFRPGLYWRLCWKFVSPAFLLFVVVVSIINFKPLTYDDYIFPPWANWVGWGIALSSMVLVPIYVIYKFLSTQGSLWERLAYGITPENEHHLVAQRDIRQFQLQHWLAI
# TEST PROTOCOL: Functional Norepinephrine (NE) Uptake Assay in MDCK-Net6 cells
# Assay type: cell-based
# PARTICULARS: MDCK-Net6 cells stably transfected with human hNET; 3H norepinephrine 16 nM
Counter-ions that a name gives are not always drawn.
IC50 less than 100 nM is Condition met; IC50 greater than or equal to 100 nM is Condition not met.

Identify whether the compound "O=S1(=O)N(CCCNC2CC2)Cc2cc(F)ccc2N1c1ccccc1F" records IC50 below 100 nM.
Condition not met

Identify whether the compound "CNC[C@@H](O)CCN1Cc2cc(F)ccc2N(c2ccccc2F)S1(=O)=O" records IC50 below 100 nM.
Condition met

Identify whether the compound "CNCCCCN1Cc2ccccc2N(c2ccccc2F)S1(=O)=O" records IC50 below 100 nM.
Condition met

Identify whether the compound "CNC[C@@H](O)CCN1Cc2ccccc2N(c2ccccc2F)S1(=O)=O" records IC50 below 100 nM.
Condition met

Identify whether the compound CNCCCN1Cc2ccccc2N(c2ccc(C)cc2)S1(=O)=O [Example 8, hydrochloride] records IC50 below 100 nM.
Condition not met

Identify whether the compound CNCCCN1Cc2ccccc2N(c2ccc(Cl)cc2)S1(=O)=O [Example 5, hydrochloride] records IC50 below 100 nM.
Condition not met

Identify whether the compound CNCCCN1Cc2ccccc2N(c2ccc(F)cc2)S1(=O)=O [Example 7, hydrochloride] records IC50 below 100 nM.
Condition not met

Identify whether the compound CNCCCN1Cc2ccccc2N(c2ccc(F)c(Cl)c2)S1(=O)=O [Example 6, hydrochloride] records IC50 below 100 nM.
Condition not met
